Data credit: the supplement of paper PMC10065799

Molecular target: EPHB2 (UniProt P29323)
Sequence (P29323 whole entry, looked up): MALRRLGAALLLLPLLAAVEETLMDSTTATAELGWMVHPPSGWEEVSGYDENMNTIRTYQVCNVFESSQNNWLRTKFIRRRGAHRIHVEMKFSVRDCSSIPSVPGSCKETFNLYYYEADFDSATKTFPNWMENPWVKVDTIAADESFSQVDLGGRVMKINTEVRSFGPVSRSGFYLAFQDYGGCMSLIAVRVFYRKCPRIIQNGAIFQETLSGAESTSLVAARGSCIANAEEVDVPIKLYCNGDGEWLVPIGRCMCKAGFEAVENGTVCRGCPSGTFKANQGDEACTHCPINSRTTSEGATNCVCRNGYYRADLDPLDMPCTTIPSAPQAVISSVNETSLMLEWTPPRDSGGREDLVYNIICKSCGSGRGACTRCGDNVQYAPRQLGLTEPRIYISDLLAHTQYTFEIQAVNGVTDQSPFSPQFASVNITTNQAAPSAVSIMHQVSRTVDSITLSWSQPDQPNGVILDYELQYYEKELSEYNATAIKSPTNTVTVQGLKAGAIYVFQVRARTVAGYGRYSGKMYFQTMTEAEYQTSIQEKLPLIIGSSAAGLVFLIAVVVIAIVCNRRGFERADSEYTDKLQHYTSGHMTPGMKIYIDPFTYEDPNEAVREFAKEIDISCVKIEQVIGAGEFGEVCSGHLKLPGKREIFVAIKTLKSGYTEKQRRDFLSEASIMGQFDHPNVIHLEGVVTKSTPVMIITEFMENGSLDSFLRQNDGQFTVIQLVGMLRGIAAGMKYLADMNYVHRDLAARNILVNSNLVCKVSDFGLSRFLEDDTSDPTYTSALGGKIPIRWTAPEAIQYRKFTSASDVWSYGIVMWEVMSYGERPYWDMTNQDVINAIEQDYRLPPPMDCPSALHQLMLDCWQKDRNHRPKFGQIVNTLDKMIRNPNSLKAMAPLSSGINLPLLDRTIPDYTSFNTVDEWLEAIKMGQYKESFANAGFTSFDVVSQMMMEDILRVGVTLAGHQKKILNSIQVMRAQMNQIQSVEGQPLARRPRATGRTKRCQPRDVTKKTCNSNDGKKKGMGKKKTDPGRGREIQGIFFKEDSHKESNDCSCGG
Experiment: phosphorylation enrichment, bacterial display (enrichment ratio); higher = better substrate or ligand; peptides without Tyr show the background;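 also: 11-residue human phosphosite peptides and single-mutation variants displayed on the E. coli surface, counted by deep sequencing, each peptide's frequency after selection divided by its frequency in the unselected input library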;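 also: frequency after pTyr selection over input frequency; kinase dosed for 20-30% of maximal phosphorylation in three min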
Label rule met when phosphorylation enrichment >= 0.5; otherwise rule not met.

# count of solved cases: 5
HITQVYGFFDE [PPP2CA_Y127_Q122H_YF] :: rule met
ERKQTYGSCRK [LACTB_Y473] :: rule not met
CENCHYPIVPL [LCK_Y25] :: rule not met
TEGNGYISFNE [LCP1_Y28_D24E] :: rule met
NHYKRYNLCAE [PTEN_Y68_I67R] :: rule met

Below: the item to evaluate.
**Q:** Given KLPYLYDDPFS [GPX2_Y127_P126L] , state whether its phosphorylation enrichment is at least 0.5.
**A:** rule met
